Data provenance is ChEMBL document CHEMBL3232739.

test: Volume of distribution at steady state in Sprague-Dawley rat at 2 mg/kg, iv; format: ADME, organism-based; design: dose 2 mg/kg, route intravenous; conditions: in vivo, read-out: Vdss

Chemical Smiles	Vd (L/kg)
Cc1ccc(F)cc1C(C)(C)C[C@@](O)(Cc1cc2cnccc2[nH]1)C(C)(C)C	4

* * *

test: Cmax in Sprague-Dawley rat at 30 mg/kg, po; assay type: ADME, organism-based; parameters: dose 30 mg/kg, route oral; conditions: in vivo
Measurement Label: Cmax (ng/mL)

Chemical Smiles	Measurement Label	Observed Value
Cc1ccc(F)cc1C(C)(C)C[C@@](O)(Cc1cc2cnccc2[nH]1)C(C)(C)C	Cmax	708
